variants and their reported polymerase ribozyme fitness (log ratio)
B1: TPR t1 (parent)
chain: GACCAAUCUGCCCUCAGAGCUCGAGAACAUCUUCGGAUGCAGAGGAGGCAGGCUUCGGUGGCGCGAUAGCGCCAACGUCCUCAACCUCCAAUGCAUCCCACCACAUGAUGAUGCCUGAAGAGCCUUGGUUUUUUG

variants of: B1; assay: polymerase ribozyme fitness, log enrichment relative to wild type (log ratio); higher = more active; in vitro selection for triplet polymerase activity
Output: the number by itself.

Solved cases below.
[
  {
    "entry-sequence": "GACAAAUCUGCCCUCAGAGCUCGAGAACAUCUUCGGAUGCAGAGGAGGCAGGCUUCGGUGGCGCGAUAGCGCCAACGUCCUCAACCUCCAAUGCAUCCCACCACAUGAUGAUUCCUGAAGAGCCUUGGUUUUUUG [C4A G113U]",
    "readout-label": "polymerase ribozyme fitness (log ratio)",
    "value": -3.74
  },
  {
    "entry-sequence": "GACCCAUAUGCCCUCAGAGCUCGAGAACAUCUUCGGCUGCAUAGGAGGCAGGCUUCGGUGGCGCGAUAGCGCCAACGUCCUCAACCUCCAAUGCAUCCCACCAUAUGAUGAUGCCUGAAGAGCCUUGGUUUUUUG [A5C C8A A37C G42U C104U]",
    "readout-label": "polymerase ribozyme fitness (log ratio)",
    "value": -2.13
  },
  {
    "entry-sequence": "GACCAAUCUGCCCUCAGAGCUCGAGAACAUCUUCGGAUGCAGAGGAGGCAGGCUUCGGUGGCGCGAUAGCUCCAACGUCCUCAACCUCCAAUGCAUCCCUCCACAUGAUGAUGCCUGAAGAGCCUUGGUUUUUUG [G71U A100U]",
    "readout-label": "polymerase ribozyme fitness (log ratio)",
    "value": -1.2
  },
  {
    "entry-sequence": "GACCAAUCUACCCUCAUAGCUCGAGAACAUCUUCGGAUGCAGAGGAGGCAGGCUUCGGUGGCGCGAUAGCGCCAACGUCCUCAACCUCCAAUGCAUCCCACCACAUGAUGAUGCAUGAAGAGCCUUGGUUUUUUU [G10A G17U C115A G135U]",
    "readout-label": "polymerase ribozyme fitness (log ratio)",
    "value": 0.196
  },
  {
    "entry-sequence": "GACCAAUCUGCCCUCAGAGCUCGAGAACAUCUUCGGGUGCAGAGGAGGCAGGCUUCGGUGGCGCGAUAGCGGUUACGUCCUCAACCUCCAAUGCAUCCCACCACAUGAUGAUGCCUGAAGAGCCUUGGUUUUUUG [A37G C72G C73U A74U]",
    "readout-label": "polymerase ribozyme fitness (log ratio)",
    "value": -6.02
  }
]

Ask: Report polymerase ribozyme fitness (log ratio) for GACCAAUCUGCCUUCAGAGCUCGAGAUCAUCUUCGGAUGCAGAGGAGGCAGGCUUCGGUGGCGCGAUAGCGACAACGUCCUCAACCUCCAAUGCAUCCCACCACAUGAUGAUGCCUGAAGAGCCUUGGUAUUUUG [C13U A27U C72A U130A] please.
Reply: -2.6

Ask: Now consider GACCAAUCUGCCCUCAGAGCUCGAGAACAUCUUCGUAUGCAGAGGAGGCAGGCUUCGGUGGCGCGAUAGCGCCAACGUCCUCAACCUCCAAUGCAACCCACCACAUGAUGAUGCCUGAAGAGCCUUGGUUUUUUG [G36U U96A] .
Reply: -2.69
